Reported values: Ki for 5-hydroxytryptamine receptor 2A (Homo sapiens, UniProt P28223), one per item.

| smilesInput | systemName | Ki (nM) |
| --- | --- | --- |
| CCc1nc2c(N3CCNCC3)ccnc2n1Cc1cccc(Cl)c1 | 5-hydroxytryptamine receptor 2A (Homo sapiens, UniProt P28223) | 449 |
| CC(C)c1nc2c(N3CCNCC3)ccnc2n1Cc1cccc(F)c1 | 5-hydroxytryptamine receptor 2A (Homo sapiens, UniProt P28223) | 475 |

----------
pKi: −log10 of the molar value.
Reported values: pKi for D(2) dopamine receptor (Homo sapiens), one per item.

| compound | systemName | pKi |
| --- | --- | --- |
| O=S(=O)(c1ccccc1)c1cnc2c(N3CCNCC3)cccc2c1 [INTEPIRDINE] | D(2) dopamine receptor (Homo sapiens) | 6.00 |
| CC(C)c1nc2c(N3CCNCC3)ccnc2n1Cc1cccc(Cl)c1 | D(2) dopamine receptor (Homo sapiens) | 5.53 |
| CC(C)c1nc2c(N3CCNCC3)ccnc2n1Cc1cccc(F)c1 | D(2) dopamine receptor (Homo sapiens) | 5.46 |
